# Test system: rodent lifetime carcinogenesis bioassay, tumor incidence TD50
# Test Description: carcinogenic potency in animals, long-term in vivo studies, CPDB compilation (AID 1745844)
# Measurement Context: rat; strain Charles River CD (Sprague-Dawley); females; in feed; site: liver; lesion: hepatocellular adenoma; dosed 105 weeks; study length 105 weeks
Observed Property: TD50 (mg/kg/day)

> print(dat)
                molecule.smiles                               test.system  observed.property  test.value
1  CCNc1nc(Cl)nc(NC(C)(C)C#N)n1  rodent lifetime carcinogenesis bioassay, tumor incidence TD50               TD50         280

====

# System: rodent lifetime carcinogenesis bioassay, tumor incidence TD50
# Test Description: carcinogenic potency in animals, long-term in vivo studies, CPDB compilation (AID 1745844)
# Measurement Context: rat; strain Fischer 344; females; by gavage; site: any site (literature study); lesion: several types; types named in the paper; dosed 91 weeks; study length 105 weeks
Observed Property: TD50 (mg/kg/day)

> print(dat)
   molecule.smiles                               test.system  observed.property  test.value
1      ClCC(Cl)CCl  rodent lifetime carcinogenesis bioassay, tumor incidence TD50               TD50        1.02

====

# Test system: rodent lifetime carcinogenesis bioassay, tumor incidence TD50
# Test Description: carcinogenic potency in animals, long-term in vivo studies, CPDB compilation (AID 1745844)
# Measurement Context: mouse; strain B6C3F1; females; by gavage; site: any site (literature study); lesion: several types; types named in the paper; dosed 103 weeks; study length 105 weeks
Calls of active or inactive are those of the source. The rule behind the calls is not given here.
Observed Property: TD50

> print(dat)
                                   molecule                test.value
1                                Clc1ccccc1  373 mg/kg/day (inactive)
2  c1cc(OCC2CO2)cc(OCC2CO2)c1 (centres undefined)            32.3 mg/kg/day
3                               C=CC(=O)NCO            30.9 mg/kg/day
4                               ClC=C(Cl)Cl             359 mg/kg/day
5      CC(I)C1OCC(CO)O1 (centres undefined)             172 mg/kg/day
6                                O=P(O)(O)O             958 mg/kg/day
7             CC(Cl)CCl (centres undefined)             341 mg/kg/day
8  C[C@H](CCC(=O)O)[C@H]1CC[C@H]2[C@@H]3CC[C@@H]4C[C@H](O)CC[C@]4(C)[C@H]3CC[C@]12C  960 mg/kg/day (inactive)
9                                 C=C(C)CCl             149 mg/kg/day

====

# System: rodent lifetime carcinogenesis bioassay, tumor incidence TD50
# Test Description: carcinogenic potency in animals, long-term in vivo studies, CPDB compilation (AID 1745844)
# Measurement Context: mouse; strain B6C3F1; males; by gavage; site: lung; lesion: alveolar/bronchiolar adenoma + alveolar/bronchiolar carcinoma; dosed 103 weeks; study length 105 weeks
Quick reference for log10 TD50 among some compounds
Observed Property: log10 TD50 (log10 of the value in mg/kg/day)

> print(dat)
                                   compound                               test.system  test.value
1                             Nc1ccc(Cl)cc1  rodent lifetime carcinogenesis bioassay, tumor incidence TD50        3.44
2  C[C@H](CCC(=O)O)[C@H]1CC[C@H]2[C@@H]3CC[C@@H]4C[C@H](O)CC[C@]4(C)[C@H]3CC[C@]12C  rodent lifetime carcinogenesis bioassay, tumor incidence TD50        2.92
3  CC(CCl)OC(C)CCl (configuration not stated)  rodent lifetime carcinogenesis bioassay, tumor incidence TD50        2.41
4      CC(Cl)CCl (configuration not stated)  rodent lifetime carcinogenesis bioassay, tumor incidence TD50        3.71
5                               C=CC(=O)NCO  rodent lifetime carcinogenesis bioassay, tumor incidence TD50        1.59
6                                Clc1ccccc1  rodent lifetime carcinogenesis bioassay, tumor incidence TD50        2.28
7                               ClC=C(Cl)Cl  rodent lifetime carcinogenesis bioassay, tumor incidence TD50        3.63
